- Tested on: SF-295
- test.name: NCI tumour cell line growth inhibition, 48 h
Activity calls are given as the source filed them. Rule as the data show it: active = GI50 up to about 1.1 µM and inactive = higher.
GI50 by entry:

See these solved cases before continuing.
CC1SC(c2ccccc2)N(Nc2c3ccccc3nc3ccccc23)C1=O (configuration not stated) ... 69 µM (inactive)
N#Cc1c2c(c(Cl)n3c1nc1ccccc13)CCCC2 ... 4.83 µM (inactive)
COc1cc([C@@H]2c3cc4c(cc3[C@H](OC3OC5COC(C(C)C)OC5C(O)C3O)C3COC(=O)[C@@H]32)OCO4)cc(OC)c1OC (some centres not stated) ... 3.47 µM (inactive)

Short answer for `C/C(=N\Nc1nc2ccccc2[nH]1)c1cc2ccccc2cn1` : GI50 was 0.166 µM (active)

Short answer for `CCNCCCNc1c2ccccc2nc2ccccc12` : GI50 was 0.498 µM (active)

Short answer for `O=Cc1c2ccccc2n2ccc3c4ccccc4[nH]c3c12` : GI50 was > 10 µM (inactive)

---

- Tested on: NCI-H226
- test.name: NCI tumour cell line growth inhibition, 48 h
Active and inactive are the calls of the source. Rule as the data show it: active = GI50 up to about 1.1 µM and inactive = higher.
GI50 by entry:

CCOC(=O)/C=C\C(C#N)(C#N)/N=C/c1ccsc1 ... 14.8 µM (inactive)

Field GI50 (NCI-H226), entry COC(=O)[C@]1(C)CCCC2(C)C1CC[C@H]1C=C(C)[C@H]3CCC12C3 (stereo not given in full) : > 100 µM (inactive)

Field GI50 (NCI-H226), entry N#Cc1c2c(c(N)oc1=O)C(c1ccccc1)CC(=O)N2 (stereo not given) : > 100 µM (inactive)

Field GI50 (NCI-H226), entry O=C1NC(c2c(Cl)cccc2Cl)Nc2ccccc21 (stereo not given) : 40.2 µM (inactive)

Field GI50 (NCI-H226), entry `CCN(CC)CCCNc1nccc2c(C)c3[nH]c4ccncc4c(=O)c3cc12` : 2.24 µM (inactive)

Field GI50 (NCI-H226), entry COc1ccc2c3c1O[C@H]1C(O)CCC4(O)[C@@H](C2)NCC[C@]314 (stereo not given in full) : > 100 µM (inactive)

Field GI50 (NCI-H226), entry `O=C(Nn1c(-c2ccccc2)nc2ccccc2c1=O)c1ccc(O)cc1` : > 100 µM (inactive)

Field GI50 (NCI-H226), entry `CCOC(=O)/C(C#N)=C(N)/C(=N\Nc1cccc(C(F)(F)F)c1)C(=O)OCC` : > 100 µM (inactive)

Field GI50 (NCI-H226), entry `COc1ccc2c(c1)[n+]([O-])c(C(=O)CC(=O)C(=O)Nc1cccc(C)c1C)c(C)[n+]2[O-]` : > 100 µM (inactive)

Field GI50 (NCI-H226), entry Nc1nc(Cl)c(N)c(NCC2(CO)CCC(CCc3ccccc3)C2)n1 (stereo not given) : 18.2 µM (inactive)

---

- Test system: PC-3
- test.name: NCI tumour cell line growth inhibition, 48 h
Active and inactive are the calls of the source. Cut-off read from the data, not from the text of the source: active = GI50 up to about 1.1 µM and inactive = higher.
Classes to choose from: YES for active, NO for inactive

CN1CCc2c(sc3nc(Nc4ccccc4)n(N)c(=O)c23)C1 ... NO
O=C1CC(=O)c2c(N3CCCC3)sc(N3CCCC3)c21 ... NO
Cc1cc(S(=O)(=O)N/C(=C(\C#N)C(=O)c2ccccc2)[n+]2ccc(N(C)C)cc2)c([S-])cc1Cl ... NO
COC(=O)c1ccccc1C1CN=NC12Cc1c(C)cc(C)cc1C2=O (stereo not drawn) ... NO
O=C(Nc1ccccc1C(=O)NCc1ccccc1)/C(=C/c1ccccc1)NC(=O)c1ccccc1 ... NO
Nc1cc2c(c3ccccc13)C(CCl)CN2C(=O)c1cc2cc(NC(=O)c3cc4ccccc4o3)ccc2[nH]1 (stereo not drawn) ... YES
CC(=O)CCC1(C(=O)OCC(C)C)CCCC1=O (stereo not drawn) ... NO
Cc1ccc(/C=C2/N/C(=N\N=C/C(O)C(O)C(O)C(O)CO)NC2=O)cc1 (stereo not drawn) ... NO

Input line: What did this assay record as the result for COc1ccccc1C1C2=C(COC2=O)Oc2cc3c(cc21)OCO3 (stereo not drawn) ?
Output line: NO

Input line: What did this assay record as the result for `NNC(=O)c1nnn(N)c1S` ?
Output line: NO

Input line: What did this assay record as the result for `O=C1NC(=N/c2ccccc2)/C(=N\c2ccccc2)N1c1ccccc1` ?
Output line: NO
